Taken from the supplement of paper PMC8671470.

Recorded cell viability values for a group of molecules are listed next.
- System: HL-60
- Protocol Description: cell viability (% survival relative to DMSO control); higher = less cytotoxic
- Condition Label: 1 µM; 72 h; co-treatment: AZD3965 100 nM
Return type: number; implicit unit %.

// solved cases for cell viability follow
INSERT INTO measurements (molecule, tested_target, reported_result) VALUES
  ('CCc1oc2ccccc2c1C(=O)c1cc(Br)c(O)c(Br)c1', 'HL-60', 102),
  ('C[C@H]1c2cccc(O)c2C(=O)C2C(=O)[C@]3(O)C(=O)C(C(N)=O)C(=O)[C@@H](N(C)C)[C@@H]3[C@@H](O)[C@@H]21 (some centres undefined)', 'HL-60', 96.7),
  ('O=C(/C=C/c1ccc(O)c(O)c1)OCCc1ccccc1', 'HL-60', 103);

Prompt: Hello, please tell me recorded cell viability for this one: CCCCCCCC/C=C\CCCCCCCC(=O)Nc1ccccc1 [Octadec-9-Enoic Acid Phenylamide]
Completion: 101
